Values were extracted from PubChem BioAssay AID488890.

The following compounds are shown together with reported inhibition values.
Assay procedure: growth inhibition of non-replicating M. tuberculosis (AID 488890);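 also: plate controls were DMSO cells for no effect and high antibiotic wells for full effect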
Measurement parameters: Mycobacterium tuberculosis non-replicating, at 25 µM, stronger effect = higher value
In all, about 320,000 compounds went through this assay and about 1,300 (0.41%) were called active. About 3% were inconclusive and are not listed. A selection follows. Potency and affinity values are given separately.
Measure name: inhibition (%)

{"Smiles notation": "Cc1ccc(NC(=O)c2ccco2)cc1C", "Result": 60.8}
{"Smiles notation": "O=C(C1CCN(S(=O)(=O)c2ccc(Br)cc2)CC1)N1CCOCC1", "Result": -10.1}
{"Smiles notation": "O=C(Nc1ccc([N+](=O)[O-])cc1)c1cncc(Br)c1", "Result": 13.8}

* * *

The following molecules are shown together with reported inhibition values.
Assay procedure: growth inhibition of non-replicating M. tuberculosis (AID 488890)
Measurement parameters: Mycobacterium tuberculosis non-replicating, at 25 µM, stronger effect = higher value
Screen size: about 320,000 compounds; about 1,300 (0.41%) were called active. Not shown: some 3% with an inconclusive outcome. The list is a sample of the results. Potency and affinity values are given separately.

{"Smiles notation": "O=C(NC12CC3CC(CC(C3)C1)C2)c1ccc(-c2ccc(Cl)cc2)o1", "Unit spec": "%", "inhibition": 64.3}
{"Smiles notation": "Cc1c([N+](=O)[O-])cc(C(=O)Nc2ccc(Cc3ccncc3)cc2)cc1[N+](=O)[O-]", "Unit spec": "%", "inhibition": 59.9}
{"Smiles notation": "O=C(NC12CC3CC(CC(C3)C1)C2)c1ccc([N+](=O)[O-])cc1", "Unit spec": "%", "inhibition": 74.3}

* * *

The following molecules are shown together with reported inhibition values.
Assay procedure: growth inhibition of non-replicating M. tuberculosis (AID 488890)
Measurement parameters: Mycobacterium tuberculosis non-replicating, at 25 µM, stronger effect = higher value
About 1,300 (0.41%) of roughly 320,000 compounds were called active. About 3% were inconclusive and are not listed. Only a sample is shown. Entries with a potency or affinity are not part of this list.

{"Smiles notation": "CCC(=O)Nc1nc2ccccc2n1CCN1CCOCC1", "inhibition / %": 2.63}
{"Smiles notation": "C/C(=N\\NC(=O)CNc1cccc(Cl)c1C)C1CC1", "inhibition / %": 2.17}
{"Smiles notation": "O=c1c2ccccc2nnn1COc1ccc(F)cc1Cl", "inhibition / %": 33}
{"Smiles notation": "COc1ccc(NC(=O)CN(C)CC(=O)Nc2ccccc2SC)cc1", "inhibition / %": -4.75}
{"Smiles notation": "CCOC(=O)c1cc2c(C)[nH]c(C)c2cc(C(=O)OCC)c1=O", "inhibition / %": -5.61}

* * *

The following molecules are shown together with reported inhibition values.
Assay procedure: growth inhibition of non-replicating M. tuberculosis (AID 488890)
Measurement parameters: Mycobacterium tuberculosis non-replicating, at 25 µM, stronger effect = higher value
Screen size: about 320,000 compounds; about 1,300 (0.41%) were called active. Roughly 3% stayed inconclusive and do not appear here. These entries were drawn from the full list. Measured potencies and affinities stand elsewhere.

{"Molecule": "O=C(N/N=C\\c1cc(Br)c(Br)o1)c1cncc(Br)c1", "Unit spec": "%", "inhibition": -11.5}
{"Molecule": "COc1cc(C(=O)Nc2nc(OC)c(-c3ccccc3)c(OC)n2)cc(OC)c1OC", "Unit spec": "%", "inhibition": -16.2}
{"Molecule": "O=C(N/N=C/c1ccc(Cl)s1)c1ccccc1[N+](=O)[O-]", "Unit spec": "%", "inhibition": 19.9}
{"Molecule": "COc1cc([N+](=O)[O-])cc(/C=N/NC(=O)c2cncc(Br)c2)c1O", "Unit spec": "%", "inhibition": 10.5}
{"Molecule": "O=C(O)c1cc2c(ccc3ccccc32)oc1=O", "Unit spec": "%", "inhibition": -4.26}
{"Molecule": "C=CCn1c(O)c(C(C)=Nc2ccc(NC(C)=O)cc2)c(=O)[nH]c1=O", "Unit spec": "%", "inhibition": -9.1}
{"Molecule": "O=C(N/N=C/c1ccccc1[N+](=O)[O-])c1cccs1", "Unit spec": "%", "inhibition": 55.4}
{"Molecule": "Cc1ccc(SCCC(=O)OCC(=O)Nc2ccc(C(N)=O)cc2)cc1", "Unit spec": "%", "inhibition": -4.28}
{"Molecule": "CC(C)(O)C#Cc1ccc(CN2CCN(C3CCCCC3)C(CCO)C2)s1 (centres undefined)", "Unit spec": "%", "inhibition": 11.2}

* * *

Assay procedure: growth inhibition of non-replicating M. tuberculosis (AID 488890)
Measurement parameters: Mycobacterium tuberculosis non-replicating, at 25 µM, stronger effect = higher value
Hit rate of the full screen: of about 320,000 compounds, about 1,300 (0.41%) were called active. Inconclusive results (about 3%) are left out. The list is a sample of the results. Potency and affinity values are given separately.
Measure name: inhibition (%)

{"Molecule": "COc1ccc(CCNC(=O)c2ccc(-c3ccc([N+](=O)[O-])cc3)o2)cc1OC", "Result": 60.1}
{"Molecule": "CN1CCc2c(sc(NC(=O)c3ccco3)c2C(N)=O)C1", "Result": 0.26}
{"Molecule": "CCOCCOC(=O)c1[nH]c2c(c1C)C(=O)CC(c1cccs1)C2 (stereo not drawn)", "Result": 5.49}
{"Molecule": "COC(=O)c1sc(NC(=O)c2c(OC)cccc2OC)c(C#N)c1C", "Result": -6.6}
{"Molecule": "CN1CCc2c(sc(NC(=O)c3ccc(C(=O)c4ccccc4)cc3)c2C(N)=O)C1", "Result": -13.4}
{"Molecule": "CSc1c2c(nc3ncnn13)CCC2", "Result": -27.5}
{"Molecule": "c1cnc2c(OCc3cn4cccnc4n3)cccc2c1", "Result": 24.9}
{"Molecule": "COc1cc(C=O)c(Cl)cc1OCC(N)=O", "Result": -0.64}

* * *

Assay procedure: growth inhibition of non-replicating M. tuberculosis (AID 488890);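 also: plate controls were DMSO cells for no effect and high antibiotic wells for full effect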
Measurement parameters: Mycobacterium tuberculosis non-replicating, at 25 µM, stronger effect = higher value
About 1,300 (0.41%) of roughly 320,000 compounds were called active. Not shown: some 3% with an inconclusive outcome. A selection follows. Entries with a potency or affinity are not part of this list.
The following compounds are shown together with reported inhibition values.
Measure name: inhibition (%)

{"Smiles notation": "Cc1ccccc1NC(=O)COC(=O)CCSc1ccccc1", "Result": 61.5}
{"Smiles notation": "C/C(CC(=O)Nc1ccc(Cl)cc1Cl)=N\\NC(=O)C(=O)NCCO", "Result": 24.8}
{"Smiles notation": "Cc1nc([N+](=O)[O-])c(Sc2nc3ccccc3n2C)n1Cc1ccccc1", "Result": 70.5}

* * *

Assay procedure: growth inhibition of non-replicating M. tuberculosis (AID 488890);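 also: plate controls were DMSO cells for no effect and high antibiotic wells for full effect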
Measurement parameters: Mycobacterium tuberculosis non-replicating, at 25 µM, stronger effect = higher value
The whole screen tested about 320,000 compounds, of which about 1,300 (0.41%) were called active. About 3% were inconclusive and are not listed. Not all results are given here. Results with a measured potency or affinity are listed apart.

{"Smiles notation": "COC(=O)CNC(=O)COC(=O)c1cc(F)c(F)cc1Cl", "Unit spec": "%", "inhibition": 42.5}
{"Smiles notation": "Cc1cccnc1NC(=O)c1ccc([N+](=O)[O-])o1", "Unit spec": "%", "inhibition": 70.2}
{"Smiles notation": "COc1ccc(-c2nc(CSCC(=O)N3CCN(C(=O)c4ccco4)CC3)c(C)o2)cc1OC", "Unit spec": "%", "inhibition": -16.5}
{"Smiles notation": "O=C(Nc1ccccn1)c1ccco1", "Unit spec": "%", "inhibition": 2.01}
{"Smiles notation": "CN(Cc1ccccc1)C(=O)c1[nH]cnc1C(=O)N[C@@H](Cc1ccccc1)C(=O)OC(C)(C)C", "Unit spec": "%", "inhibition": 57.5}
{"Smiles notation": "O=C(NNC(=O)c1ccc([N+](=O)[O-])o1)c1ccccc1", "Unit spec": "%", "inhibition": 70}

* * *

Assay procedure: growth inhibition of non-replicating M. tuberculosis (AID 488890);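 also: plate controls were DMSO cells for no effect and high antibiotic wells for full effect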
Measurement parameters: Mycobacterium tuberculosis non-replicating, at 25 µM, stronger effect = higher value
Screen size: about 320,000 compounds; about 1,300 (0.41%) were called active. Another 3% or so got no clear call; they are omitted. These entries were drawn from the full list. Measured potencies and affinities stand elsewhere.

{"Compound": "CC(C)c1ccccc1NC(=O)c1ccccc1NC(=O)C1CCCCC1", "inhibition (%)": -1.84}
{"Compound": "O=C(Cn1nc(-c2ccccc2F)ccc1=O)Nc1ccc(S(=O)(=O)N2CCCCCC2)cc1", "inhibition (%)": 30.3}
{"Compound": "C=CCn1c(SCC(=O)Nc2ccc(NC(=O)c3ccco3)c(OC)c2)nnc1-c1ccncc1", "inhibition (%)": 13.9}
{"Compound": "Cc1nc(CCNC(=O)COc2ccccc2)cs1", "inhibition (%)": -16}
{"Compound": "COC1C(C)=C(C)C(=O)N1Cc1ccccc1 (configuration not stated)", "inhibition (%)": -5.86}
{"Compound": "CC1(c2cc(C(F)(F)F)n3nc(C(=O)O)cc3n2)CC1", "inhibition (%)": -1.85}
{"Compound": "O=C(CN1CCOCC1)N/N=C/c1ccc(-c2ccc(C(=O)O)cc2)o1", "inhibition (%)": 2.35}
